- cond: in methyl acetate, 293.35 K
assay_readout: solubility (mole fraction)
// print number alone

Q: // solubility (mole fraction) lookup, key: CC(N)=S
A: 0.112

###

- cond: in n-propanol, 298.15 K
assay_readout: solubility (mole fraction)

Q: // solubility (mole fraction) lookup, key: CC(N)=S
A: 0.126

###

- cond: in ethyl acetate, 293.35 K
assay_readout: solubility (mole fraction)

Q: // solubility (mole fraction) lookup, key: CC(N)=S
A: 0.111

###

- cond: in methanol, 318.25 K
assay_readout: solubility (mole fraction)
// print number alone

Q: // solubility (mole fraction) lookup, key: CC(N)=S
A: 0.31

###

- cond: in n-pentanol, 283.45 K
assay_readout: solubility (mole fraction)
// print number alone

Q: // solubility (mole fraction) lookup, key: CC(N)=S
A: 0.0716

###

- cond: in ethyl acetate, 318.05 K
assay_readout: solubility (mole fraction)
// print number alone

Q: // solubility (mole fraction) lookup, key: CC(N)=S
A: 0.194

###

- cond: in ethyl acetate, 297.85 K
assay_readout: solubility (mole fraction)
// print number alone

Q: // solubility (mole fraction) lookup, key: CC(N)=S
A: 0.124

###

- cond: in n-propanol, 277.95 K
assay_readout: solubility (mole fraction)
// print number alone

Q: // solubility (mole fraction) lookup, key: CC(N)=S
A: 0.0608

###

- cond: in isopentanol, 277.95 K
assay_readout: solubility (mole fraction)
// print number alone

Q: // solubility (mole fraction) lookup, key: CC(N)=S
A: 0.0415

###

- cond: in n-pentanol, 293.25 K
assay_readout: solubility (mole fraction)
// print number alone

Q: // solubility (mole fraction) lookup, key: CC(N)=S
A: 0.0975

###

- cond: in n-butanol, 288.25 K
assay_readout: solubility (mole fraction)
// print number alone

Q: // solubility (mole fraction) lookup, key: CC(N)=S
A: 0.0833

###

- cond: in ethanol, 293.25 K
assay_readout: solubility (mole fraction)
// print number alone

Q: // solubility (mole fraction) lookup, key: CC(N)=S
A: 0.122

###

- cond: in isopropanol, 323.15 K
assay_readout: solubility (mole fraction)
// print number alone

Q: // solubility (mole fraction) lookup, key: CC(N)=S
A: 0.251

Origin of measurements: BigSolDB 2.1
